Target: T1, MC3r (human recombinant, CHO cells) (human, UniProt P41968 1-323)
T1 construct: whole, on cells
T1 sequence (P41968 whole entry): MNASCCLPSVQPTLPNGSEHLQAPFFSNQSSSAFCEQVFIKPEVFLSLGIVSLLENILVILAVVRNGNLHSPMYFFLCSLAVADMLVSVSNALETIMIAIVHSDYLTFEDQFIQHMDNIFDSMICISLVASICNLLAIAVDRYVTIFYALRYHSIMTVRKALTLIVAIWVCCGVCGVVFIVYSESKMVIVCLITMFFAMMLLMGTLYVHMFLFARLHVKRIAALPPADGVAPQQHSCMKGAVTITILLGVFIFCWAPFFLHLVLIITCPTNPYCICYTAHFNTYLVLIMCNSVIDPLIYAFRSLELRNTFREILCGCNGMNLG
Assay: displacement of 125I-NDP-αMSH, human recombinant CHO cells expressing MC3r
parameter measured: Ki (nM)
Respond numerically; units are nM and should not be typed.

Q: # get_value(readout='Ki', item= KSYSMEHFRWGKPV (alpha-amino group of Lys1 acetylated; Ac-Lys-Lys attached to the epsilon-amino group of Lys1 (branched amino acid probe Ac-(Ac-Lys-Lys)Lys-); C-terminal amide) [α-MSH Analogue 1: Ac-(Ac-Lys-Lys)Lys-Ser-Tyr-Ser-Met-Glu-His-Phe-Arg-Trp-Gly-Lys-Pro-Val-NH2] )
Ans: 24
